FYI, the data here is from PubChem BioAssay (EPA / NIEHS).

# ASSAY_SUMMARY: Tanguay_ZF_120hpf_TRUN_legacy: (Legacy) Oregon State University Tanguay Lab 120 Hour Post-fertilization zebrafish Assay for Truncated Body (AID 2283655)
Results filed as inconclusive are left out. Activity calls are given as the source filed them. How the source made its calls: active means hit-call score of the fitted dose curve at least 0.9, where 1 is the maximum; inconclusive means response in the unintended direction; inactive means score below 0.9.
In this exercise, the only acceptable responses are yes (1) (active), no (0) (inactive)

Please review the entries below; each comes with its answer.
>>> class_name("COc1nc(NC(C)C)nc(NC(C)C)n1")
"no (0)"
>>> class_name("CCCN(CCC)c1c([N+](=O)[O-])cc(S(N)(=O)=O)cc1[N+](=O)[O-]")
"no (0)"
>>> class_name("C=CCC1=C(C)C(OC(=O)C2C(C=C(C)C)C2(C)C)CC1=O (centres undefined)")
"no (0)"
>>> class_name("N#Cc1cc(Br)c(O)c(Br)c1")
"no (0)"
>>> class_name("CCc1nn(C)c(C(=O)NCc2ccc(C(C)(C)C)cc2)c1Cl")
"no (0)"
>>> class_name("CO/C=C(/C(=O)OC)c1ccccc1Oc1cc(Oc2ccccc2C#N)ncn1")
"no (0)"

## Task Would you mind telling me which call this test gave `CON(C)C(=O)Nc1ccc(Cl)c(Cl)c1` ?
## Result no (0)

## Task For this molecule, state the assay outcome: Cc1c(F)c(F)c(COC(=O)C2C(/C=C(\Cl)C(F)(F)F)C2(C)C)c(F)c1F (centres undefined)
## Result yes (1)

## Task Tell me the assay call for `CCNc1nc(Cl)nc(NCC)n1` please.
## Result no (0)

* * *

# ASSAY_SUMMARY: APR_HepG2_MitoticArrest_72hr: Apredica 72-hour HepG2 Assay for Mitotic Arrest (AID 2282918)
# SETUP_CONDITIONS: high-content imaging, actives raise or lower the signal
Activity calls are given as the source filed them. How the source made its calls: active means hit-call score of the fitted dose curve at least 0.9, where 1 is the maximum; inactive means score below 0.9.
// classify into TRUE (active), FALSE (inactive)

Previously resolved entries follow.
>>> class_name("CC(C)Oc1cc(-n2nc(C(C)(C)C)oc2=O)c(Cl)cc1Cl")
"TRUE"
>>> class_name("Oc1ccccc1-c1ccccc1")
"FALSE"
>>> class_name("N#Cc1nn(-c2c(Cl)cc(C(F)(F)F)cc2Cl)c(N)c1S(=O)C(F)(F)F (configuration not stated)")
"FALSE"
>>> class_name("CON(C)C(=O)Nc1ccc(Cl)c(Cl)c1")
"FALSE"
>>> class_name("Cc1ccc(-c2c(Cl)nc(C#N)n2S(=O)(=O)N(C)C)cc1")
"FALSE"
>>> class_name("CC(C)(C)c1ccc(CSc2cnn(C(C)(C)C)c(=O)c2Cl)cc1")
"FALSE"
>>> class_name("O=C(Nc1ccccc1)Nc1ccnc(Cl)c1")
"FALSE"
>>> class_name("CNC(=S)S")
"TRUE"

## Task What did the test return for `COP(=S)(OC)Oc1nc(Cl)c(Cl)cc1Cl` ?
## Result FALSE

## Task Entry `O=C(O)c1nc(Cl)ccc1Cl` : call = ?
## Result FALSE

## Task Query: recorded result category for `C=CCC1=C(C)[C@@H](OC(=O)[C@@H]2[C@@H](C=C(C)C)C2(C)C)CC1=O` in this test
## Result TRUE

## Task Status in this test for `COC(=O)c1ccccc1C(=O)OC` ?
## Result FALSE

* * *

# Read-out: Monokine induced gamma interferon (MIG), CXCL9 (gene 4283)
# ASSAY_SUMMARY: BSK_BE3C_MIG: BioMAP Diversity Plus: BE3C Assay for Monokine induced gamma interferon (MIG) Biomarker Activity (AID 2283035);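 on outcome: MIG protein measured by ELISA in BE3C cultures after 24 h of dosing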
# SETUP_CONDITIONS: primary human bronchial epithelial cells; actives raise or lower the signal
Calls of active or inactive are those of the source. How the source made its calls: active means hit-call score of the fitted dose curve at least 0.9, where 1 is the maximum; inactive means score below 0.9.
Log the outcome using a class from t (active), f (inactive)

>>> class_name("COP(N)(=O)SC (stereo not given)")
"f"
>>> class_name("Fc1ccc(Oc2ccnc3cc(Cl)cc(Cl)c23)cc1")
"t"
>>> class_name("CCCN(CCC)c1c([N+](=O)[O-])cc(S(N)(=O)=O)cc1[N+](=O)[O-]")
"t"
>>> class_name("OC(c1ccc(Cl)cc1)(c1cncnc1)c1ccccc1Cl (stereo not given)")
"f"

With those in mind, consider the next compound.
## Task Per the assay record, what outcome was assigned to `O=C(O)c1nc(Cl)ccc1Cl` ?
## Result f
